system-tested: human protease activated receptor 1 (PAR-1) (Homo sapiens, UniProt P25116)
Construct: the cell stably expresses the endogenous human PAR-1 receptor and the endogenous purinergic receptor P2Y2; endogenous in cells; only the mitochondrial aequorin is recombinant
Sequence (P25116 22-425): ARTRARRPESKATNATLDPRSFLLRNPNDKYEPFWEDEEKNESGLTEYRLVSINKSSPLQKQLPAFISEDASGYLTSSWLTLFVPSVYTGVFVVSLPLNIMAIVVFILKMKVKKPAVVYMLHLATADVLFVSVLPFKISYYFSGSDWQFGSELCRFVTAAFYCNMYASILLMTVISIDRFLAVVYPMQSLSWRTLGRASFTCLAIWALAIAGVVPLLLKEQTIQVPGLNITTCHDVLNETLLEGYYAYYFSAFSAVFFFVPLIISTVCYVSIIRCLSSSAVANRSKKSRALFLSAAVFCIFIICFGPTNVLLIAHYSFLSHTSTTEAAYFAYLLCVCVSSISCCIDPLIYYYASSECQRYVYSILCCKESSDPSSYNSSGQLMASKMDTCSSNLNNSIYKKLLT
assay-info: Cellular functional in vitro test (aequorin luminescence, PAR-1 antagonism)
conditions-used: recombinant HEK293 aequorin cell line, endogenous human PAR-1; PAR-1 agonist at EC50; calcium luminescence
endpoint-name: IC50 (µM)

                                   compound  endpoint_name  measured_number
0  COCCc1noc(C2CC(c3ccc(OC(F)(F)F)cc3)CN(C(=O)N3CC(O)C3)C2)n1 (single isomer, unassigned) [Example 9]           IC50            0.028

[I] CCOCCc1noc(C2CC(c3ccc(CC)cc3)CN(C(=O)N3CCC(O)CC3)C2)n1 (single isomer, unassigned) [Example 15]
[II] O=C(N1CC(O)C1)N1CC(c2ccc(OC(F)(F)F)cc2)CC(c2nc(C3CC3)no2)C1 (single isomer, unassigned) [Example 7]
Prompt: Of I and II , which shows the smaller IC50 value? Choose, then provide that item's label.
Completion: I
